tested on: MIWI (PIWIL1) piRISC loaded with L1MC piRNA (30 nt); experiment: pre-steady-state target cleavage rate (min^-1); MIWI and MILI are mouse PIWI proteins and EfPiwi is from a freshwater sponge; tags in brackets are library labels; higher = faster piRNA-guided slicing of the target; details: guide: L1MC piRNA 5'p-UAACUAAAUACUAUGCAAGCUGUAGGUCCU; auxiliary factor: 500 nM mouse GTSF1;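 also: 1 nM active piRISC with 0.1 nM target library at 33 °C single turnover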
Whole data set: some 8,200 sequences, median “pre-steady-state target cleavage rate” near 0.024, cut for the highest 2% near 1.3. The entries come from a sample that favours the highest values as a whole.
Entries and their pre-steady-state target cleavage rate
Lab note: jot down the number only; don't add units.

Check out these entries, answers already filled in.
# lookup: pre-steady-state target cleavage rate of UCCACCUACGCUUGCAUAGUAUUUAGUUA
0.998

UCCUGGUACAGCUACCAUAGUAUUUAGUUA , same question.
0.366

What about AGGACCUAGAGCUUGCAUAGUAUUUUCAAA ?
0.0396

Quick one: AGGAGCUACAGCUAGCAUAGUAUUUAGUUA
1.28

Do the same for UGGACGUACUGCUUGCAUAGUAUUUAGUUA please
1.01

Continuing:
Which pre-steady-state target cleavage rate is reported for this sequence? UCCACCAACAGCUAGCAUAGUAUUUAGUUA
0.97
